target: human CaV3.1 (Homo sapiens); experiment: T-type calcium channel window current FLIPR assay, CaV3.1; settings: FLIPR window current assay, transiently transfected HEK293T, N = 3, mean ± SEM; read-out: IC50 CaV3.1 (LVA CaVs)
Sequence (O43497 whole entry): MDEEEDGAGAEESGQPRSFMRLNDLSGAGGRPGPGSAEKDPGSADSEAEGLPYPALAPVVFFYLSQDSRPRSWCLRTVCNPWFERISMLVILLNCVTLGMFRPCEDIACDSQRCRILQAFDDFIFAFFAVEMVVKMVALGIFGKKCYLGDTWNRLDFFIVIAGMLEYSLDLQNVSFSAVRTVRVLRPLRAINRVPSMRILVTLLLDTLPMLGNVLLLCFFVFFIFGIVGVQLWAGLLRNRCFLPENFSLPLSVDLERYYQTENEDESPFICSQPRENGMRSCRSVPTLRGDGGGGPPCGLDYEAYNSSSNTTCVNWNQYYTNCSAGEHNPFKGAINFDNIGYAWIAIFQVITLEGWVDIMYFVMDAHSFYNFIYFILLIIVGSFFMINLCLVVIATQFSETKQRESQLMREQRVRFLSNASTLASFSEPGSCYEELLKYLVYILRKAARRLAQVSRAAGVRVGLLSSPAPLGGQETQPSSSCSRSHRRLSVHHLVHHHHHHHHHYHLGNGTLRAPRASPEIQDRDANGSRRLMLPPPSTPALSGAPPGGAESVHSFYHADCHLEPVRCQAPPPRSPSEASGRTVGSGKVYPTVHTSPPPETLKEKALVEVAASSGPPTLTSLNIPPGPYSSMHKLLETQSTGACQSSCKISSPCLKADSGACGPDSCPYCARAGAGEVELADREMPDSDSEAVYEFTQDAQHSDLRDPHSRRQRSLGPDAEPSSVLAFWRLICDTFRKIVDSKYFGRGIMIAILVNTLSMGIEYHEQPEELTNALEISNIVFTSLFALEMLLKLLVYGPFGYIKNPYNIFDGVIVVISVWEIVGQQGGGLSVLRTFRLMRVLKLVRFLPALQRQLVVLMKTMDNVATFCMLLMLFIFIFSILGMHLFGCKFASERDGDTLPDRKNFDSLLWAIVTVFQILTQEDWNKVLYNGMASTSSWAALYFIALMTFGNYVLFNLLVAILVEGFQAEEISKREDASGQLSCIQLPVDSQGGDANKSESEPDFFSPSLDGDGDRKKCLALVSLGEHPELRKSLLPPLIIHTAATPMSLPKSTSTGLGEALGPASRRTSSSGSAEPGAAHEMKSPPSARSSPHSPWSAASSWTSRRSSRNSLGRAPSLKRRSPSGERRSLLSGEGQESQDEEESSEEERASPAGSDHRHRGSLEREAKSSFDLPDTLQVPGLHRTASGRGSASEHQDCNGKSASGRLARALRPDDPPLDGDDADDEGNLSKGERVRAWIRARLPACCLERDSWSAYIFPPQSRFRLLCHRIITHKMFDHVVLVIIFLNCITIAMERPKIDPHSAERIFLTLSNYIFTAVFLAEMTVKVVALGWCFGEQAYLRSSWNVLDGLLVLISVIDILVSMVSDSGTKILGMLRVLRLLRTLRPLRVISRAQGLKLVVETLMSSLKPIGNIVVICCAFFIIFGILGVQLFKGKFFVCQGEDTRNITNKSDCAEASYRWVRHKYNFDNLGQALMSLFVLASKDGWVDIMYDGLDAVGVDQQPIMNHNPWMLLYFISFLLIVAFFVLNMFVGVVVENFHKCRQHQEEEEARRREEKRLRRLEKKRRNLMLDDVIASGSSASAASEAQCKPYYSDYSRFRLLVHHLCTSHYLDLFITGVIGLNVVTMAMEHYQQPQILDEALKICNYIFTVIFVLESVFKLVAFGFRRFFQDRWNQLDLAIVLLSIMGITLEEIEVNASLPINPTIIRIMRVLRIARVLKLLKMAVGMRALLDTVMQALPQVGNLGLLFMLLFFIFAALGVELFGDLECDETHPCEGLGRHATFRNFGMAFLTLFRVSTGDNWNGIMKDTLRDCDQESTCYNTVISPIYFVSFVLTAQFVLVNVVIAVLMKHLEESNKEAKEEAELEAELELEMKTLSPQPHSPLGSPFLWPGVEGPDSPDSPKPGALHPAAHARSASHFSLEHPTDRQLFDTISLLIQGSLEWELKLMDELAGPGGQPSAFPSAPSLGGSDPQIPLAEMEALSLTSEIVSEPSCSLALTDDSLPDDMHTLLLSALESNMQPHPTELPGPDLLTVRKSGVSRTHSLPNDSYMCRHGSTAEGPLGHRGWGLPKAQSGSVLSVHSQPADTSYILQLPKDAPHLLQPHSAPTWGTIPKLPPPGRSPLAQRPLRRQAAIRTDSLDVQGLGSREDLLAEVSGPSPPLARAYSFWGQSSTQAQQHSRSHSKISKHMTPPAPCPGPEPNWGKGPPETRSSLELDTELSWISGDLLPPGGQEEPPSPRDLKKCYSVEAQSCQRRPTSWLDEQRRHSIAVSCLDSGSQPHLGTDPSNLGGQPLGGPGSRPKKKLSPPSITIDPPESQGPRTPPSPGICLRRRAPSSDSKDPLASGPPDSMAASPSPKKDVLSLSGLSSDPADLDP
So I've got a bunch of compounds here, and I need their pIC50 values.
One number for each entry, as −log10 of the molar value.

The following compounds have reported results that may help.
CC(C(=O)N[C@@H](Cc1c[nH]c2ccccc12)C(=O)O)(c1c[nH]c2ccccc12)c1c[nH]c2ccccc12 [Compound 3a]    3.91
CNC(=O)C(NC(=O)C(C)(c1c[nH]c2ccccc12)c1c[nH]c2ccccc12)C(=O)c1c[nH]c2ccccc12 (stereo not shown) [Compound 1, Pseudellone C]    4.27
CC(C(=O)O)(c1c[nH]c2ccccc12)c1c[nH]c2ccccc12 [Compound 4, 2,2-di(1H-indol-3-yl)propanoic Acid]    4.14

*Q* Which measured pIC50 belongs to COC(=O)[C@H](Cc1c[nH]c2ccccc12)NC(=O)C(C)(c1c[nH]c2ccccc12)c1c[nH]c2ccccc12 [Compound 3] , tested on human CaV3.1 (Homo sapiens)?
*A* 4.23

* * *

target: CaV3.2 (Homo sapiens); assay: T-type calcium channel window current FLIPR assay, CaV3.2; assay type: cell-based; conditions: FLIPR window current assay, HEK 293 stable, N = 3, mean ± SEM; read-out: IC50 CaV3.2 (LVA CaVs)
READOUT_KIND: log10 IC50 (log10 of the value in µM)
On a log10 scale: recorded IC50, unit µM.

The following compounds have reported results that may help.
CC(C(=O)N[C@@H](Cc1c[nH]c2ccccc12)C(=O)O)(c1c[nH]c2ccccc12)c1c[nH]c2ccccc12 [Compound 3a]    1.91
CNC(=O)C(NC(=O)C(C)(c1c[nH]c2ccccc12)c1c[nH]c2ccccc12)C(=O)c1c[nH]c2ccccc12 (centres unmarked) [Compound 1, Pseudellone C]    1.64
O=c1[nH]c2ccccc2n1C1CCN(CCCC(c2ccc(F)cc2)c2ccc(F)cc2)CC1 [pimozide, reference compound]    0.62

Your task in this section: give log10 IC50 for each listed record.
1. CC(C(=O)O)(c1c[nH]c2ccccc12)c1c[nH]c2ccccc12 [Compound 4, 2,2-di(1H-indol-3-yl)propanoic Acid]
2. COC(=O)[C@H](Cc1c[nH]c2ccccc12)NC(=O)C(C)(c1c[nH]c2ccccc12)c1c[nH]c2ccccc12 [Compound 3]

*A*
2.12
0.82

* * *

molecular target: recombinant hCaV3.3 channels (Homo sapiens, UniProt Q9P0X4); test: Whole-cell patch-clamp QPatch 16 X, CaV3.3; conditions: QPatch, 200 ms steps to Vmax (−10 mV) from holding −90 mV, n = 5, mean ± SEM; read-out: IC50 CaV3.3 whole-cell current
Sequence (Q9P0X4 whole entry): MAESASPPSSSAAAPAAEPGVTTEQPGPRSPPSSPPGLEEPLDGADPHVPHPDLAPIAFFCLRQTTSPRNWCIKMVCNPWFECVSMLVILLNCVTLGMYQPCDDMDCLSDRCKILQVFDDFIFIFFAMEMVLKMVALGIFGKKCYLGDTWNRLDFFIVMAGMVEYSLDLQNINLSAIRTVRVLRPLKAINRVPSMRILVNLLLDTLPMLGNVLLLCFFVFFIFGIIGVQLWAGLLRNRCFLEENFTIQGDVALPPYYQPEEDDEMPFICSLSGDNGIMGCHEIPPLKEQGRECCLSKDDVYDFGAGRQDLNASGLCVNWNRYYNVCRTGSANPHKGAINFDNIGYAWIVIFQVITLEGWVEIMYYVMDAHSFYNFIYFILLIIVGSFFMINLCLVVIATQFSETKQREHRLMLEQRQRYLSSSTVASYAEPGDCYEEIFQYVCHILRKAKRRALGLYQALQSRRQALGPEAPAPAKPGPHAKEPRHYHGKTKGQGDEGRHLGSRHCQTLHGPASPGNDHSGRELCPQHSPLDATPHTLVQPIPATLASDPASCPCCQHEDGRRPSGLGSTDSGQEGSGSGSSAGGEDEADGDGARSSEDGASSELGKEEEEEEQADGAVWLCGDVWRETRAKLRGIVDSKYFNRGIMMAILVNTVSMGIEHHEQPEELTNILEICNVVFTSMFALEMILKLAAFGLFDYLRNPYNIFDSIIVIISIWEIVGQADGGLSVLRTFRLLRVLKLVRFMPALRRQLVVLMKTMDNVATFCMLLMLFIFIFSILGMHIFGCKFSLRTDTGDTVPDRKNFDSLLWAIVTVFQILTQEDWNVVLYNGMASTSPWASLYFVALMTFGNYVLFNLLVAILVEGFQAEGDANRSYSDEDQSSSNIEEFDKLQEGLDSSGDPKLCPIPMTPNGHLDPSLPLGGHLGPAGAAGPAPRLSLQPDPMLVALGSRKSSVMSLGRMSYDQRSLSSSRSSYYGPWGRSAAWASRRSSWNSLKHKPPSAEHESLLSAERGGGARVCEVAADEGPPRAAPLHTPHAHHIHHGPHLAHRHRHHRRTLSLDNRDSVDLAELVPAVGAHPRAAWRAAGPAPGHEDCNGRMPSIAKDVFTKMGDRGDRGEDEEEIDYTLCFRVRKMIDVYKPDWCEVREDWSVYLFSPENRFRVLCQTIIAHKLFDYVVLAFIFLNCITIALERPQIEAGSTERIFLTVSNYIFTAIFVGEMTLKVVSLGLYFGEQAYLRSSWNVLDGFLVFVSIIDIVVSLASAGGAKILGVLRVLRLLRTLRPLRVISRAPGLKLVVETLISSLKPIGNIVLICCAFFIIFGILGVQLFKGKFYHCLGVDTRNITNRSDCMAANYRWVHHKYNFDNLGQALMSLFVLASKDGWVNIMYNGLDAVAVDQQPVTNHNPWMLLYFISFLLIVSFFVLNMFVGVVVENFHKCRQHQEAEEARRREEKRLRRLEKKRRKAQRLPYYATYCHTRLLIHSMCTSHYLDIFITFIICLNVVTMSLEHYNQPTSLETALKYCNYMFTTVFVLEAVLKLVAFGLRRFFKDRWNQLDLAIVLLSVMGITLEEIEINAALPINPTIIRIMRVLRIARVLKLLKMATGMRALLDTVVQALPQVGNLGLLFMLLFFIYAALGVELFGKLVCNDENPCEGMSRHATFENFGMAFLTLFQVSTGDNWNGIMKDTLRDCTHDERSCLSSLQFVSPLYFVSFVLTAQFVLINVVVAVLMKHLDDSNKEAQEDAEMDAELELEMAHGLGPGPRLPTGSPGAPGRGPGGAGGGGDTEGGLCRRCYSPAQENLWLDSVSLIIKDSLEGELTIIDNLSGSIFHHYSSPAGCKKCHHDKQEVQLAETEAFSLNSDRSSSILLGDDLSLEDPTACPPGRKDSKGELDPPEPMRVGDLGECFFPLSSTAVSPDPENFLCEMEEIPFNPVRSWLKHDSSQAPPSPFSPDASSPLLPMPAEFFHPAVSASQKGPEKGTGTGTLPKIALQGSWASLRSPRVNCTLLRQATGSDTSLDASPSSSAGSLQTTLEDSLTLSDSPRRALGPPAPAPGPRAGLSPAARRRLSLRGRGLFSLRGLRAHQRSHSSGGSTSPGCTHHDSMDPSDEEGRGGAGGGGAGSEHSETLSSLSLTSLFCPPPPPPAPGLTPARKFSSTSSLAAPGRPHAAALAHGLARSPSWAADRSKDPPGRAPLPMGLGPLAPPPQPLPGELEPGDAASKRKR
READOUT_KIND: IC50 (µM)
Give bare numbers, in µM.

*Q* Suppose we examine the compound "COC(=O)[C@H](Cc1c[nH]c2ccccc12)NC(=O)C(C)(c1c[nH]c2ccccc12)c1c[nH]c2ccccc12" ; what IC50 value has been reported?
*A* 15.8

* * *

target: CaV3.3 (Homo sapiens, UniProt Q9P0X4); assay: T-type calcium channel window current FLIPR assay, CaV3.3; format: cell-based; details: FLIPR window current assay, HEK 293 stable, N = 3, mean ± SEM; read-out: IC50 CaV3.3 (LVA CaVs)
Sequence (Q9P0X4 whole entry): as above
READOUT_KIND: log10(IC50) (log10 of the value in µM)
On a log10 scale: recorded IC50, unit µM.

COC(=O)[C@H](Cc1c[nH]c2ccccc12)NC(=O)C(C)(c1c[nH]c2ccccc12)c1c[nH]c2ccccc12    0.58
CNC(=O)C(NC(=O)C(C)(c1c[nH]c2ccccc12)c1c[nH]c2ccccc12)C(=O)c1c[nH]c2ccccc12 (centres unmarked)    1.42
O=c1[nH]c2ccccc2n1C1CCN(CCCC(c2ccc(F)cc2)c2ccc(F)cc2)CC1 [pimozide, reference compound]    0.89
CC(C(=O)O)(c1c[nH]c2ccccc12)c1c[nH]c2ccccc12    2.08

We next turn to a different compound, shown below.
*Q* Which measured log10(IC50) belongs to "CC(C(=O)N[C@@H](Cc1c[nH]c2ccccc12)C(=O)O)(c1c[nH]c2ccccc12)c1c[nH]c2ccccc12" , tested on CaV3.3 (Homo sapiens, UniProt Q9P0X4)?
*A* 1.95

* * *

target: CaV3.2 (Homo sapiens, UniProt O95180); experiment: T-type calcium channel window current FLIPR assay, CaV3.2; assay type: cell-based; settings: FLIPR, representative curve, n = 4; read-out: IC50 of the representative concentration-response curve, CaV3.2 window current
READOUT_KIND: pIC50
One number for each entry, as −log10 of the molar value.

*Q* Suppose we examine the compound "COC(=O)[C@H](Cc1c[nH]c2ccccc12)NC(=O)C(C)(c1c[nH]c2ccccc12)c1c[nH]c2ccccc12" ; what pIC50 value has been reported?
*A* 5.24

* * *

So I've got a bunch of molecules here, and I need their pIC50 values.
molecular target: N-type CaV2.2 (Homo sapiens); construct: endogenous in cells; assay: HVA calcium channel FLIPR assay, N-type (SH-SY5Y cells); conditions: SH-SY5Y, 10 µM nifedipine present, N = 3, mean ± SEM, read-out: IC50 CaV2.2 (HVA CaVs)
Answers are plain numbers, as −log10 of the molar value.

The following molecules have reported results that may help.
COC(=O)[C@H](Cc1c[nH]c2ccccc12)NC(=O)C(C)(c1c[nH]c2ccccc12)c1c[nH]c2ccccc12    4.50
CC(C(=O)O)(c1c[nH]c2ccccc12)c1c[nH]c2ccccc12    3.75
CC(C(=O)N[C@@H](Cc1c[nH]c2ccccc12)C(=O)O)(c1c[nH]c2ccccc12)c1c[nH]c2ccccc12    3.83

We next turn to a different molecule, shown below.
*Q* Suppose we examine the molecule CNC(=O)C(NC(=O)C(C)(c1c[nH]c2ccccc12)c1c[nH]c2ccccc12)C(=O)c1c[nH]c2ccccc12 (stereo not shown) ; what pIC50 value has been reported?
*A* 4.08

* * *

target: CaV3.3 (Homo sapiens); assay: T-type calcium channel window current FLIPR assay, CaV3.3; assay type: cell-based; conditions: FLIPR, representative curve, n = 4; read-out: IC50 of the representative concentration-response curve, CaV3.3 window current
READOUT_KIND: IC50 (µM)
Numbers only, in µM.

*Q* Suppose we examine the compound "COC(=O)[C@H](Cc1c[nH]c2ccccc12)NC(=O)C(C)(c1c[nH]c2ccccc12)c1c[nH]c2ccccc12" ; what IC50 value has been reported?
*A* 3.05
